experiment: Lyophilisation solubility assay (Lysa); format: physicochemical; details: pH 6.5, aqueous buffer, thermodynamic from solid
Please respond with reported solubility thermodynamic for every item in the list.
Give bare numbers, in mg/mL.

Recorded results for 2 molecules are shown here.
CCOC(=O)C1=C(CN2[C@@H]3COC[C@H]2C[C@H](CC(=O)O)C3)NC(c2nccs2)=N[C@H]1c1ccc(F)c(F)c1Cl; 0.203
COC(=O)C1=C(CN2C3CSCC2CC(CC(=O)O)C3)NC(c2nccs2)=N[C@H]1c1ccc(F)cc1Cl (stereo partly drawn); 0.188

Now for another entry.
// query solubility thermodynamic value for entry `CCOC(=O)C1=C(CN2[C@@H]3COC[C@H]2C[C@H](CC(=O)O)C3)NC(c2nccs2)=N[C@H]1c1cccc(F)c1Br` 0.32

Cited source for all entries: patent US9266904B2
